Recorded values, source patent US20260199325A1.

Biological target: human metabotropic Glutamate 4 receptor (Homo sapiens, UniProt Q14833)
Construct: expressed in transfected cells; host or cells: HEK293
Sequence (Q14833 33-912): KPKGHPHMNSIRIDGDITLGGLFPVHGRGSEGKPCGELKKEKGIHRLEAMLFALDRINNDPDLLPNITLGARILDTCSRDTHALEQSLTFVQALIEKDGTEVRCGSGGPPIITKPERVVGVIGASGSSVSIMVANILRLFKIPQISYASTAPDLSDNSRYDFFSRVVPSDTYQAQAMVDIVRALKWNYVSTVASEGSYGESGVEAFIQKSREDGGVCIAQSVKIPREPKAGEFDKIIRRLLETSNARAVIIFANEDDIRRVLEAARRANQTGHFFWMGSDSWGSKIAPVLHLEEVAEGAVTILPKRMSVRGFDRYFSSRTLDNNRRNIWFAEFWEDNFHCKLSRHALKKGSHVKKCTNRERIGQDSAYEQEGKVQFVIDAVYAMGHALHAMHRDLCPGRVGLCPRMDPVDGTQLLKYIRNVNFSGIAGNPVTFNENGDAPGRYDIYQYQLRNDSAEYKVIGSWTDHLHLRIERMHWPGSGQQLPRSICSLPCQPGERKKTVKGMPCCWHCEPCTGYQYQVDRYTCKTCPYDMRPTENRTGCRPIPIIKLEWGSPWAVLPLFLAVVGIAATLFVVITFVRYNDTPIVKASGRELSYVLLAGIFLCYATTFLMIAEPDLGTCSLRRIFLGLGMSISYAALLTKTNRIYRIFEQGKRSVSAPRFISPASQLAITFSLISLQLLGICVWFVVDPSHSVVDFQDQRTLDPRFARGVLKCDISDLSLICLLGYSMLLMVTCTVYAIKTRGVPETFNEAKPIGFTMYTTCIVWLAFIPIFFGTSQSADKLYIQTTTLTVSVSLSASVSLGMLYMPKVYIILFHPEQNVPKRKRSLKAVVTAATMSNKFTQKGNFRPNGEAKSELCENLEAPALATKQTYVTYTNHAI
Test: In vitro testing of mGluR4 potency (Assay A), cAMP HTRF in HEK293 cells
Type: cell-based
Details: Table 2; HEK293 cell overexpressing human mGluR4; 10 uM L-Glutamic acid, 1 uM forskolin
QUANTITY NAME: IC50 (nM)

Some molecules with known IC50 results, for comparison:
CCn1c([C@@H](NC(=O)c2cnc(C)cn2)C2CC2)nc2c(C)nc(C(F)(F)F)cc21: 33
Cc1cnc(C(=O)N[C@H](c2nc3ccc(C(F)(F)F)nc3n2C(C)C)C2CC2)cn1: 3
COC(C)(C)[C@H](NC(=O)c1cnc(C(F)F)cn1)c1nc2c(C)c(C#N)cnc2n1C(C)C: 1
COc1c(C#N)cnc2c1nc([C@@H](NC(=O)c1cnc(C)cn1)C1CC1)n2C(C)C: 14

P. Cc1cnc(C(=O)N[C@@H](C[C@@H]2CCCO2)c2nc3c(C)c(C#N)cnc3n2C(C)C)cn1
Q. CO[C@H](C)[C@H](NC(=O)c1cnc(C)cn1)c1nc2cc(C(F)(F)F)cnc2n1C(C)C
### Prompt Thinking about recorded IC50 values, which is higher, P or Q ? Please respond with the label that marks your chosen entry.
### Response P
